Assay: in vitro
Conditions: human
measured-quantity: log10 CC50 at 72 h (log10 of the value in µM)
All values: base-10 log of CC50 at 72 h in µM.

In the examples that follow, each entry is paired with its recorded log10 CC50 at 72 h.
1) CC1CC(=O)c2cc(F)ccc2S1 (centres unmarked) [Compound 1b, 6-Fluoro-2-methylthiochroman-4-one]; 2.76
2) O=C1CC(c2ccc(Cl)cc2)Sc2ccccc21 (centres unmarked) [Compound 1k, 2-(4-Chlorophenyl)-thiochroman-4-one]; 1.81

# next molecule below
Per the record, O=C1CC(C(=O)O)Sc2ccccc21 (centres unmarked) [Compound 1e, 4-Oxothiochroman-2-carboxylic acid] has log10 CC50 at 72 h of 2.16

* * *

Assay: in vitro
Details: human
measured-quantity: CC50 at 72 h

1) O=c1cc(-c2ccc([N+](=O)[O-])cc2)sc2ccccc12 [Compound 2m, 2-(4-nitrophenyl)-4H-thiochromen-4-one]; > 706 µM
2) O=C1C=C(c2ccc(C(F)(F)F)cc2)S(=O)(=O)c2ccc(F)cc21 [Compound 4j]; > 561 µM

# next compound below
Per the record, O=C1CC(c2ccc([N+](=O)[O-])cc2)Sc2ccccc21 (stereo not drawn) [Compound 1m, 2-(4-Nitrophenyl)-thiochroman-4-one] has CC50 at 72 h of > 701 µM

* * *

Experiment: in vitro
Conditions: human
measured-quantity: CC50 at 72 h

In the examples that follow, each entry is paired with its recorded CC50 at 72 h.
1) O=C1CC(c2ccc(C(F)(F)F)cc2)Sc2ccccc21 (centres unmarked) [Compound 1i]; > 649 µM
2) O=c1ccsc2ccc([N+](=O)[O-])cc12 [Compound 2f, 6-Nitro-4H-thiochromen-4-one]; > 965 µM
3) O=C1C=C(c2ccc(C(F)(F)F)cc2)S(=O)(=O)c2ccccc21 [Compound 4i]; > 591 µM
4) O=C1CCSc2c1ccc1c2C(=O)CCS1 [Compound 1d]; 279 µM
5) O=C1CCSc2ccc(F)cc21 [Compound 1c, 6-Fluorothiochroman-4-one]; 705 µM
6) O=c1cc(-c2ccc(C(F)(F)F)cc2)sc2ccc(F)cc12 [Compound 2j]; 51.4 µM
7) CC1CC(=O)c2ccccc2S1 (centres unmarked) [Compound 1a, 2-Methylthiochroman-4-one]; 604 µM
8) O=C1CC(c2ccc(C(F)(F)F)cc2)S(=O)(=O)c2ccccc21 (centres unmarked) [Compound 3i]; 62.9 µM
9) O=C1CC(c2ccc(F)cc2)Sc2ccccc21 (centres unmarked) [Compound 1l, 2-(4-Fluorophenyl)-thiochroman-4-one]; 72.9 µM
10) O=C1C=C(c2ccc(F)cc2)S(=O)(=O)c2ccccc21 [Compound 4l]; > 694 µM

Per the record, O=C1CC(c2ccccc2)S(=O)(=O)c2ccccc21 (centres unmarked) [Compound 3h, 2-Phenylthiochroman-4-one 1,1-dioxide] has CC50 at 72 h of 529 µM

Per the record, CC1CC(=O)c2ccccc2S1(=O)=O (centres unmarked) [Compound 3a, 2-Methylthiochroman-4-one 1,1-dioxide] has CC50 at 72 h of > 825 µM

Per the record, CC1CC(=O)c2cc(F)ccc2S1(=O)=O (centres unmarked) [Compound 3b] has CC50 at 72 h of > 876 µM

Per the record, O=C1C=C(c2ccc([N+](=O)[O-])cc2)S(=O)(=O)c2ccccc21 [Compound 4m] has CC50 at 72 h of > 634 µM

* * *

Assay: in vitro
Conditions: human
Description: Cytotoxicity of the compounds was evaluated over human monocytes (U-937 ATCC CRL-1593.2) in exponential growing phase and, adjusted at 1 × 10^5 cells/mL in RPMI-1640 enriched with 10% fetal bovine serum (FBS). […] Non-specific absorbance was corrected by subtracting absorbance (O.D) of the blank. […] Cytotoxicity was determined according to viability and mortality percentages obtained for each experimental condition (synthetized compounds, amphotericin B and culture medium). […]
Could you please mark Condition met for values of CC50 at 72 h below 500 µM and Condition not met for values at or above it?

These recorded examples may help you get a feel for the data.
1) O=c1cc(-c2ccc(Cl)cc2)sc2ccccc12; Condition not met
2) O=C1CC(c2ccc([N+](=O)[O-])cc2)S(=O)(=O)c2ccccc21 (stereo not drawn); Condition not met
3) O=C1C=C(c2ccc(Cl)cc2)S(=O)(=O)c2ccccc21; Condition not met
4) O=c1cc(-c2ccc(C(F)(F)F)cc2)sc2ccccc12; Condition not met
5) O=C1CC(c2ccc(F)cc2)S(=O)(=O)c2ccccc21 (stereo not drawn); Condition not met

Q. Given O=C1CC(c2ccc(C(F)(F)F)cc2)Sc2ccc(F)cc21 (stereo not drawn) , is recorded CC50 at 72 h strictly lower than 500 µM?
A. Condition met

Q. Given O=C1CCS(=O)(=O)c2ccc(F)cc21 [Compound 3c, 6-Fluorothiochroman-4-one 1,1-dioxide] , is recorded CC50 at 72 h strictly lower than 500 µM?
A. Condition not met

Q. Given C[C@@H]1[C@H](O)[C@@H](C)/C=C/C=C/C=C/C=C/C=C/C=C/C=C/[C@H](O[C@@H]2O[C@H](C)[C@@H](O)[C@H](N)[C@@H]2O)C[C@@H]2O[C@](O)(C[C@@H](O)C[C@@H](O)[C@H](O)CC[C@@H](O)C[C@@H](O)CC(=O)O[C@H]1C)C[C@H](O)[C@H]2C(=O)O [Amphotericin B, reference compound] , is recorded CC50 at 72 h strictly lower than 500 µM?
A. Condition met

Q. Given O=C1CC(c2ccc(Cl)cc2)S(=O)(=O)c2ccccc21 (stereo not drawn) , is recorded CC50 at 72 h strictly lower than 500 µM?
A. Condition not met

Q. Given O=C1CC(c2ccc(C(F)(F)F)cc2)S(=O)(=O)c2ccc(F)cc21 (stereo not drawn) , is recorded CC50 at 72 h strictly lower than 500 µM?
A. Condition not met

Q. Given "Nc1ccc2c(c1)C(=O)CCS2" , is recorded CC50 at 72 h strictly lower than 500 µM?
A. Condition met

Q. Given "O=C1C=C(c2ccccc2)S(=O)(=O)c2ccccc21" , is recorded CC50 at 72 h strictly lower than 500 µM?
A. Condition not met

* * *

Experiment: in vitro
Conditions: human
Measured CC50 at 72 h accompanies every entry in the list below.

In the examples that follow, each entry is paired with its recorded CC50 at 72 h.
1) O=C1CCSc2ccc([N+](=O)[O-])cc21; > 200 µM
2) O=C1CC(c2ccccc2)Sc2ccccc21 (stereo not drawn); > 41.6 µM

# next compound below
Per the record, "O=c1cc(-c2ccc(F)cc2)sc2ccccc12" has CC50 at 72 h of 503 µM
